# MBC per record follows
tested on: S. typhi; assay: Minimal bactericidal concentration (MBC); format: cell-based; details: Salmonella enterica
Provide the reading as a plain figure in µM.

Some compounds with recorded MBC:
CCCCCCCCCCCCOc1ccc(C=NNC(=O)c2ccc(OC)c(OC)c2)cc1 | 66.8
CO/N=C(\C(=O)N[C@@H]1C(=O)N2C(C(=O)O)=C(CSc3nc(=O)c(=O)[nH]n3C)CS[C@H]12)c1csc(N)n1 [ceftriaxone, reference compound] | 225
CCOc1ccc(C=NNC(=O)c2ccc(OC)c(OC)c2)cc1 | 95.4
COc1ccc(C(=O)NN=Cc2ccc3ccccc3n2)cc1OC | 186
COc1ccc(C(=O)NN=Cc2cc(C(C)(C)C)cc(C(C)(C)C)c2O)cc1OC | 75.9
COc1ccc(C(=O)NN=Cc2c(C)cc(C)cc2C)cc1OC | 192

Pending compound:
Quick check: MBC of COc1ccc(C(=O)NN=Cc2ccc(N)cc2)cc1OC ?
105

====

test system: E. coli ATCC 25922; test: Minimal inhibitory concentration (MIC), broth dilution; details: Escherichia coli, ATCC25922
ASSAY_METRIC: MIC (µM)
Provide the reading as a plain figure in µM.

Some compounds with recorded MIC:
COc1ccc(C(=O)NN=Cc2cc(Br)cc(Br)c2O)cc1OC | 17.1
COc1ccc(C(=O)NN=Cc2cc(Cl)cc(Cl)c2O)cc1OC | 42.4
COc1ccc(C(=O)NN=Cc2cc(C(C)(C)C)cc(C(C)(C)C)c2O)cc1OC | 75.9
COc1ccc(C(=O)NN=Cc2ccc3ccccc3n2)cc1OC | 23.3
CCCCCCCCCCCCOc1ccc(C=NNC(=O)c2ccc(OC)c(OC)c2)cc1 | 66.8
CCOc1ccc(C=NNC(=O)c2ccc(OC)c(OC)c2)cc1 | 23.8

Quick check: MIC of COc1ccc(C(=O)NN=Cc2ccc(NC(C)=O)cc2)cc1OC ?
22.9

Quick check: MIC of COc1ccc(C(=O)NN=Cc2c(C)cc(C)cc2C)cc1OC ?
47.8

Quick check: MIC of COc1ccc(C(=O)NN=Cc2ccc(N)cc2)cc1OC ?
52.1

====

tested on: E. coli; assay: Minimal bactericidal concentration (MBC); type: cell-based; details: Escherichia coli
# MBC per record follows
Kindly format the answer as number then unit.

Some molecules with recorded MBC:
COc1ccc(C(=O)NN=Cc2c(C)cc(C)cc2C)cc1OC | 192 µM
CO/N=C(\C(=O)N[C@@H]1C(=O)N2C(C(=O)O)=C(CSc3nc(=O)c(=O)[nH]n3C)CS[C@H]12)c1csc(N)n1 [ceftriaxone, reference compound] | 113 µM
COc1ccc(C(=O)NN=Cc2ccc(N)cc2)cc1OC | 105 µM
COc1ccc(C(=O)NN=Cc2ccc3ccccc3n2)cc1OC | 186 µM

API: value(readout=MBC, system=E. coli) for record COc1ccc(C(=O)NN=Cc2cc(Br)cc(Br)c2O)cc1OC
68.7 µM

====

experiment: Cytotoxicity on cells using MTT assay; format: cell-based; details: African green monkey, Vero cells (normal mammalian cell line)
ASSAY_METRIC: IC50 (µM)
Provide the reading as a plain figure in µM.

Some compounds with recorded IC50:
COc1ccc(C(=O)NN=Cc2cc(Cl)cc(Cl)c2O)cc1OC [Compound 4f] | 2160
COc1ccc(C(=O)NN=Cc2ccc3ccccc3n2)cc1OC [Compound 4i] | 305

Pending compound:
Quick check: IC50 of COc1ccc(C(=O)NN=Cc2ccc(N)cc2)cc1OC [Compound 4a] ?
407
